# target under test: hemagglutinin (HA) of influenza A/Vietnam/1194/04 (H5N1) (influenza A virus A/Vietnam/1194/04 (H5N1))
# method description: cell-based or functional assay
Attribute: VNA IC50
test readout: VNA IC50 (nM)

binder	result unit	relation symbol	obs value
SD3013 (VHH) VHH: EVQLVESGGGVVQPGGSLRLSCAASISIFDIYAMDWYRQAPGKQRELVATSFRDGSTYYADSVKGRFTISRDNSKNTLYLQMNSLRAEDTAVYLCHVSLYRDPLGVAGGMGVYWGKGALVTVSS	nM	=	20
SD3032 (VHH) VHH: EVQLVESGGGLVQPGGSLRLSCAVSISIFDIYAMDWYRQAPGKQRDLVATSFRDGSTNYADSVKGRFTISRDNAKNTLYLQMNSLKPEDTAVYLCHVSLYRDPLGVAGGAGVYWGKGALVTVSS	nM	>	500

Each recorded value in this set is attributed to patent US20190359693A1.
